Origin of measurements: the RNAGym collection of RNA variant scans (doi:10.1126/science.aae0568)

Examples of variants with documented yeast fitness follow.
B1: tRNA (parent)
chain: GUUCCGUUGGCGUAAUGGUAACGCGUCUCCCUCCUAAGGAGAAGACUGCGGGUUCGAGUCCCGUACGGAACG

- Variants of: B1
- experiment: yeast fitness relative to wild type (ratio to wild type); higher = fitter; tRNA-Arg(CCU), competitive growth, 37 C, YPD
This sample holds only a part of the variants without activity.

mutation.name: U7A U53C
relational.operator: =
yeast fitness: 0.604
//
mutation.name: G10A C29A
relational.operator: =
yeast fitness: 0.574
//
mutation.name: A36G C46G C49U
relational.operator: =
yeast fitness: 0.763
//
mutation.name: C4G U16C U32A C46U G63C
relational.operator: ≤
yeast fitness: 0.5
//
mutation.name: C30G C31A
relational.operator: =
yeast fitness: 0.62
//
mutation.name: C49A A57U A70C
relational.operator: =
yeast fitness: 0.518
//
mutation.name: C33G G38C C55A A65U
relational.operator: =
yeast fitness: 0.665
//
mutation.name: C30A U32C
relational.operator: =
yeast fitness: 0.892
//
mutation.name: G25C C29U A42U
relational.operator: =
yeast fitness: 0.664
//
mutation.name: U2C C24A U26A U47C
relational.operator: ≤
yeast fitness: 0.5
//
mutation.name: C4G U32A G38C
relational.operator: ≤
yeast fitness: 0.5
//
mutation.name: G9C G44A
relational.operator: =
yeast fitness: 0.673
//
mutation.name: U28A C31U A65U
relational.operator: =
yeast fitness: 0.546
//
mutation.name: C33U A37G C49U A57U
relational.operator: ≤
yeast fitness: 0.5
//
mutation.name: G9C U19A A21G A43C A65G G67A
relational.operator: ≤
yeast fitness: 0.5
//
mutation.name: C22G U26G C27G U53A
relational.operator: ≤
yeast fitness: 0.5
//
mutation.name: G9C U35G G41A G56A A70C
relational.operator: ≤
yeast fitness: 0.5
//
mutation.name: A20G U32A
relational.operator: =
yeast fitness: 0.719
//
mutation.name: C27U A40G C55U G56A U64G A69U
relational.operator: ≤
yeast fitness: 0.5
//
mutation.name: A20U U47A A69U
relational.operator: =
yeast fitness: 0.619
//
mutation.name: C24G C30U A43U C60G A65C
relational.operator: ≤
yeast fitness: 0.5
//
mutation.name: C11U U54A C62U
relational.operator: ≤
yeast fitness: 0.5
//
mutation.name: U2A U7A U32A
relational.operator: ≤
yeast fitness: 0.5
//
mutation.name: C5A U13A U59A U64G
relational.operator: ≤
yeast fitness: 0.5
//
mutation.name: C4G A20U C29G C31A G38A
relational.operator: ≤
yeast fitness: 0.5
//
mutation.name: U26C C29U
relational.operator: =
yeast fitness: 0.869
//
mutation.name: A37C C49U C55U G63A G67C
relational.operator: ≤
yeast fitness: 0.5
//
mutation.name: C11U A14G A21C C29U A37G C55U
relational.operator: ≤
yeast fitness: 0.5
//
mutation.name: C31G U64C
relational.operator: =
yeast fitness: 0.777
//
mutation.name: G23C C49U C62A C66A
relational.operator: ≤
yeast fitness: 0.5
//
mutation.name: A37C U64G
relational.operator: =
yeast fitness: 0.684
//
mutation.name: A15C C61U
relational.operator: =
yeast fitness: 0.713
//
mutation.name: C34G A70C
relational.operator: =
yeast fitness: 0.585
//
mutation.name: C5G G10C C29A U32A C46G A57C
relational.operator: ≤
yeast fitness: 0.5
//
mutation.name: U13A A40U
relational.operator: =
yeast fitness: 0.99
//
mutation.name: G12A C29A G67C
relational.operator: ≤
yeast fitness: 0.5
//
mutation.name: U32A C61U
relational.operator: =
yeast fitness: 0.855
//
mutation.name: G12A A36G U47G A65U
relational.operator: =
yeast fitness: 0.646
//
mutation.name: C5U A15C C27U C29U A57C
relational.operator: ≤
yeast fitness: 0.5
//
mutation.name: U8A C24U U28C A40C
relational.operator: ≤
yeast fitness: 0.5
//
mutation.name: C4G G9C A42U C55G
relational.operator: ≤
yeast fitness: 0.5
//
mutation.name: G9C A37G G41A
relational.operator: ≤
yeast fitness: 0.5
//
mutation.name: A37C C46G C62G
relational.operator: =
yeast fitness: 0.654
//
mutation.name: U26C G39A U59C
relational.operator: =
yeast fitness: 0.604
//
mutation.name: C4G G23C C29U
relational.operator: =
yeast fitness: 0.501
//
mutation.name: C30U A42C C62G C66G
relational.operator: ≤
yeast fitness: 0.5
//
mutation.name: C31U U47C
relational.operator: =
yeast fitness: 0.934
//
mutation.name: U16A A37U C62G
relational.operator: ≤
yeast fitness: 0.5
//
mutation.name: U54A C66A
relational.operator: =
yeast fitness: 0.528
//
mutation.name: G6C C34G G38A U64A
relational.operator: ≤
yeast fitness: 0.5
//
mutation.name: A20C G38A C55A C66U
relational.operator: ≤
yeast fitness: 0.5
//
mutation.name: C5G A14U U28C C46G C61U
relational.operator: ≤
yeast fitness: 0.5
//
mutation.name: A21G A43C
relational.operator: =
yeast fitness: 0.966
//
mutation.name: A14U A37U C61G C62U
relational.operator: ≤
yeast fitness: 0.5
//
mutation.name: A37C G39C C55U C61A
relational.operator: =
yeast fitness: 0.532
//
mutation.name: A42C G44A U53A
relational.operator: ≤
yeast fitness: 0.5
//
mutation.name: C5G C33U
relational.operator: =
yeast fitness: 0.673
//
mutation.name: U26A C27U C33G A36U G50A
relational.operator: ≤
yeast fitness: 0.5
//
mutation.name: U7A U19G G58A A69C
relational.operator: =
yeast fitness: 0.527
//
mutation.name: U7G A20G A21G G38C G50C
relational.operator: ≤
yeast fitness: 0.5
//
mutation.name: C5U A14G G50C C55U A57G G68A
relational.operator: ≤
yeast fitness: 0.5
//
mutation.name: U32C C34A A40C U54C C66U
relational.operator: =
yeast fitness: 0.534
//
mutation.name: C5G A20U G25A G41A C55G
relational.operator: ≤
yeast fitness: 0.5
//
mutation.name: G44C G52C C66G
relational.operator: ≤
yeast fitness: 0.5
//
mutation.name: A20U A45U C55G
relational.operator: =
yeast fitness: 0.533
//
mutation.name: C5A G68C
relational.operator: =
yeast fitness: 0.802
//
mutation.name: G9A G39C C66U
relational.operator: =
yeast fitness: 0.606
//
mutation.name: A14U G18C G39C C49G
relational.operator: ≤
yeast fitness: 0.5
//
mutation.name: U7A A21C A45G
relational.operator: =
yeast fitness: 0.571
//
mutation.name: C5G C30U C31G C61A A69U
relational.operator: ≤
yeast fitness: 0.5
//
mutation.name: C5U G12A A14G A57U
relational.operator: ≤
yeast fitness: 0.5
//
mutation.name: A20G G39C
relational.operator: =
yeast fitness: 0.829
//
mutation.name: C5G U13G C29U A40G C60U A65G C66U
relational.operator: ≤
yeast fitness: 0.5
//
mutation.name: C22U C60G A70G
relational.operator: ≤
yeast fitness: 0.5
//
mutation.name: C11G U16A
relational.operator: =
yeast fitness: 0.666
//
mutation.name: U2G G6A C22U C27U A36U C60G
relational.operator: ≤
yeast fitness: 0.5
//
mutation.name: C4A C30U
relational.operator: =
yeast fitness: 0.756
//
mutation.name: A15G A57U G68U
relational.operator: ≤
yeast fitness: 0.5
//
mutation.name: A20C C24U A40G A42U G50A G51C A70C
relational.operator: ≤
yeast fitness: 0.5
